Recorded OD values for a group of binders are listed next.
# Target Of Assay: soluble 1999 H1 HA (seasonal 1999 H1N1) (Influenza A virus (H1N1, 1999))
# Assay Text: ELISA, supernate; note: test concentration or dose not given here
Be sure to follow the number with its unit.

Below: 2 binders and their reported OD.
| Binder | OD |
| --- | --- |
| mAb 5J8 (antibody, V domains shown) VH: EVQLVESGPGLVKPSDILSLTCAVSGYSISSNYYWGWIRQPPGKGLEWIGSIYHSGSTYYKPSLESRLGISVDTSKNQFSLKLSFVSAADTAVYYCARHVRSGYPDTAYYFDKWGQGTLVTVS VL: SYVLTQPPSVSVAPGETARISCGGNNIGTKVLHWYQQTPGQAPVLVVYDDSDRPSGIPERFSGSNSGNTATLTISRVEVGDEADYYCQVWDISTDQAVFGGGTKLTVLG | 1.46 OD |
| mAb 6J24 (antibody, V domains shown) VH: EVQLVESGGGLVQPGRSLRLSCVGSGFNFDGYAMQWVRQVPGKGLEWVSGISWHSDSTGYADSVRGRFTISRDNAKNSLYLQMDSLRPEDTAFYYCGKSIGHVGGSYRHPIDYWGQGTLVTVS VL: DIQLTQSPSSLSASVGDRVTITCRASQGITDYLAWYQQKPGTIPKLLIYAASTLQSGVPSRFSGGGYGTDFTLTISSLQPEDVATYYCQKYNSAPLTFGGGTKVEIKR | 0.183 OD |

Proceed to the following item.
Recall and state the measured OD for mAb 11J19 (antibody, V domains shown) VH: EVQLQESGPGLVKPSETLSLSCTVSGGSITRSSYYWGWIRQPPGKGLEWIGNIYYSGTTYYNPSLKSRVTISVDTSKNQFSLKLSSVTAADTAVYYCARLYGSGLDYWGQGTLVTVS VL: DIQLTQSPSFLSASVGDRVTITCRASQGSSRYVAWYQQKPGKAPKLLILAASTLHTGVPSRFSGSGSGTEFTLTISSLQPEDFATYSCQQLNGFLLTFGGGTKVEIKR . 0.071 OD
